The reported measurements were obtained from patent US11319324B2.

Target: UniProt:P56373
Sequence (P56373 whole entry): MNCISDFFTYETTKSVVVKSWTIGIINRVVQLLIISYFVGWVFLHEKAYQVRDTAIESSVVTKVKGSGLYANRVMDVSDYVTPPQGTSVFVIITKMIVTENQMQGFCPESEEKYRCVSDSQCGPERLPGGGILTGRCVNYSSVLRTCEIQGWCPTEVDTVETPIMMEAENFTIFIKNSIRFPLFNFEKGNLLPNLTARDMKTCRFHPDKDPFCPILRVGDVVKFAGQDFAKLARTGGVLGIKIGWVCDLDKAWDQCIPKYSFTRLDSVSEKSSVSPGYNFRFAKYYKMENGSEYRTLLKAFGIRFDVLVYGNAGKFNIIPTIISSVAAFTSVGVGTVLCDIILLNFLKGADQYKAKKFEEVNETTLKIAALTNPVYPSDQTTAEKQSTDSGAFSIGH
Assay: Intracellular calcium measurement to assess antagonist activity at human P2X3 receptors (hP2X3 CHO), photina luminescence
Assay type: cell-based
Parameters: expressed in transfected cells; host or cells: Chinese hamster ovary (CHO) cells
Settings: column 2), CHO cells, agonist α,β-methylene-ATP at EC50
measurement.kind: IC50 (nM)

| molecule | measurement.kind | display.unit | recorded.number |
| --- | --- | --- | --- |
| CCc1cc2n(CC(=O)Nc3ccc(C)cn3)c3c(c(=O)n2n1)CN(CC1CCCO1)C3=O (stereo not shown) [Example 63] | IC50 | nM | 355 |
| CCc1cc2n(CC(=O)Nc3ccc(F)cn3)c3c(c(=O)n2n1)CN(CC1CN(C(C)=O)C1)C3=O [Example 268] | IC50 | nM | 580 |
| COCc1cc2n(CC(=O)Nc3ccc(F)cn3)c3c(c(=O)n2n1)CN(C(C)C)C3=O [Example 57] | IC50 | nM | 125 |
| CCc1cc2n(CC(=O)Nc3ccc(F)cn3)c3c(c(=O)n2n1)CN(C[C@H]1CN(CCC(F)(F)F)CCO1)C3=O [Example 259] | IC50 | nM | 33 |
